Where do these numbers come from? They come from patent US20200123147A1.

Target: PRMT5:MEP50 protein complex (Homo sapiens, UniProt O14744)
Construct: FLAG (N)
Sequence (O14744 whole entry, species assumed): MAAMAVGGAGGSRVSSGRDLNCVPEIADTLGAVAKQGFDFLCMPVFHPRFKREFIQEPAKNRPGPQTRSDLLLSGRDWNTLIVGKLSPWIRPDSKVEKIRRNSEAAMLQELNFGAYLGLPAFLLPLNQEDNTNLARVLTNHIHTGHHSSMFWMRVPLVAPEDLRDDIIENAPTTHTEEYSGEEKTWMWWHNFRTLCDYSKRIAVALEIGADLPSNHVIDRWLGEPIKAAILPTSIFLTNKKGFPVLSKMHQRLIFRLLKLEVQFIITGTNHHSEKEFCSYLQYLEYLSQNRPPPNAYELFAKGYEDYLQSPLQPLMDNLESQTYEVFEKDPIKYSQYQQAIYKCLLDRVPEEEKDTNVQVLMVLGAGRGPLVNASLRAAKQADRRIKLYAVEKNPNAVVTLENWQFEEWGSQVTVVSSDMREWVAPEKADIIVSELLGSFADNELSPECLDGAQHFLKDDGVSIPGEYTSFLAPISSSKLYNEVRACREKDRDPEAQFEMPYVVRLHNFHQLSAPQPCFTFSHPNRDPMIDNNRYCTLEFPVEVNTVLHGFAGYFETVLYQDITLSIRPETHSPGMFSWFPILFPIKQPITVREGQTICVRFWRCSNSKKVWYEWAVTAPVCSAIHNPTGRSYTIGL
Sequence (Q9BQA1 whole entry partner, species assumed): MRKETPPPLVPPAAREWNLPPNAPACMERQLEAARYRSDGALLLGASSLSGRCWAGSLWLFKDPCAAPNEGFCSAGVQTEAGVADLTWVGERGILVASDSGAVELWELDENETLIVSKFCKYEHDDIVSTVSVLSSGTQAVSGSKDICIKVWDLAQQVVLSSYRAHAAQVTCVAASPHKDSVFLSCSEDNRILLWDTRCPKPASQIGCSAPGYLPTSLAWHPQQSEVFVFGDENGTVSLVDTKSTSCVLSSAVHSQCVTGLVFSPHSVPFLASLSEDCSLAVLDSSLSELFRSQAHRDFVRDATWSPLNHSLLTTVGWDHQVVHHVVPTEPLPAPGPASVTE
Assay: In vitro assay 1: PRMT5 SPA assay ("EAA")
Conditions: scintillation proximity assay, methylation of biotinylated H4(1-24) peptide, 3H-SAM, 60 min at 22° C.
Readout kind: IC50 (µM)

>  <Molecule>
CC(C)(C)c1cc(NC(=O)c2csc(NCC3CCCO3)n2)no1 (racemic)

>  <Assayed target>
PRMT5:MEP50 protein complex (Homo sapiens, UniProt O14744)

>  <Result units>
µM

>  <Endpoint value>
5.68

$$$$

I. CC(C)(C)c1cc(NC(=O)c2csc(Nc3cccc(F)c3F)n2)no1
II. O=C(Nc1ccon1)c1csc(Nc2ccc(Cl)cc2)n1
III. CC(C)(C)c1cc(NC(=O)c2csc(Nc3ccc(F)cc3)n2)no1
IV. O=C(c1csc(Nc2ccc(Cl)cc2)n1)N1CCC(N2CCc3ccccc3C2)CC1
Incoming: Sort the molecules on IC50; start with the lowest figure. Sort the labels as requested; that list is your answer.
Outgoing: III, II, IV, I
(III: 0.149 µM, II: 0.775 µM, IV: 7.61 µM, I: 12.3 µM)

====

Molecular target: PRMT5:MEP50 protein complex (Homo sapiens, UniProt O14744)
Construct: FLAG (N)
Test: In vitro assay 1: PRMT5 SPA assay ("EAA")
Settings: scintillation proximity assay, methylation of biotinylated H4(1-24) peptide, 3H-SAM, 60 min at 22° C.
Readout kind: IC50 (nM)

P. CC(C)(C)c1cc(NC(=O)c2csc(Nc3ccccc3C(=O)Nc3cc4ccccc4cn3)n2)no1 [Example 47]
Q. Cc1c(NC(=O)c2csc(Nc3ccc(Cl)cc3)n2)noc1C(C)(C)C [Example 29]
R. O=C(NCCCCN1CCc2ccccc2C1)c1csc(Nc2ccc(Cl)cc2)n1 [Example 17]
S. O=C(Nc1nccs1)c1csc(Nc2ccc(Cl)cc2)n1 [Example 11]
Incoming: // sort entries: IC50, high to low Sort the labels as requested; that list is your answer.
Outgoing: Q, P, R, S

P. CC(C)(C)c1cc(NC(=O)c2csc(Nc3ccc(F)c(Cl)c3)n2)no1 [Example 46]
Q. O=C(Nc1nc2ccccc2s1)c1csc(Nc2ccc(Cl)cc2)n1 [Example 8]
Incoming: For P and Q , which recorded IC50 is lower? Kindly state the label of the option you pick.
Outgoing: Q
(Q: 111 nM, P: 1200 nM)

I. CCn1ccc(NC(=O)c2csc(Nc3ccc(Cl)cc3)n2)n1 [Example 15]
II. CC(C)(C)c1cc(NC(=O)c2csc(Nc3ccc4c(c3)CCC4)n2)no1 [Example 38]
Incoming: Which shows the larger IC50 value: I or II ? Kindly state the label of the option you pick.
Outgoing: I

====

Target: PRMT5:MEP50 protein complex (Homo sapiens)
Construct: FLAG (N)
Assay: In vitro assay 1: PRMT5 SPA assay ("EAA")
Settings: scintillation proximity assay, methylation of biotinylated H4(1-24) peptide, 3H-SAM, 60 min at 22° C.
Readout kind: IC50 (nM)

>  <Molecule>
C#Cc1cccc(Nc2nc(C(=O)Nc3cc(C(C)(C)C)on3)cs2)c1 [Example 51]

>  <Assayed target>
PRMT5:MEP50 protein complex (Homo sapiens)

>  <IC50, nM>
10500

$$$$

1. CC(C)(C)c1cc(NC(=O)c2csc(Nc3ccc([N+](=O)[O-])cc3)n2)no1 [Example 13]
2. CC(C)(C)c1cc(NC(=O)c2csc(Nc3ccc(F)c(F)c3)n2)no1 [Example 45]
3. CC(C)(C)c1cc(NC(=O)c2csc(Nc3ccc(Cl)c(F)c3)n2)no1 [Example 39]
4. N#Cc1c[nH]nc1NC(=O)c1csc(Nc2ccccc2)n1 [Example 30]
Incoming: Sort the molecules on IC50; start with the lowest figure. Sort the labels as requested; that list is your answer.
Outgoing: 3, 1, 2, 4

I. O=C(Nc1cc(C2CC2)n[nH]1)c1csc(Nc2ccccc2)n1 [Example 14]
II. CC(C)(C)c1cc(NC(=O)c2csc(Nc3ccc(F)nc3)n2)no1 [Example 53]
Incoming: Which shows the larger IC50 value: I or II ? Kindly state the label of the option you pick.
Outgoing: II
(II: 15200 nM, I: 303 nM)
